# Study Target: T1, human melanocortin 4 receptor (human, UniProt P32245 1-332)
# T1 construct: whole, on cells; cAMP assay on whole BHK cells; also called MC4R; human MC4 receptor
# T1 sequence (P32245 whole entry): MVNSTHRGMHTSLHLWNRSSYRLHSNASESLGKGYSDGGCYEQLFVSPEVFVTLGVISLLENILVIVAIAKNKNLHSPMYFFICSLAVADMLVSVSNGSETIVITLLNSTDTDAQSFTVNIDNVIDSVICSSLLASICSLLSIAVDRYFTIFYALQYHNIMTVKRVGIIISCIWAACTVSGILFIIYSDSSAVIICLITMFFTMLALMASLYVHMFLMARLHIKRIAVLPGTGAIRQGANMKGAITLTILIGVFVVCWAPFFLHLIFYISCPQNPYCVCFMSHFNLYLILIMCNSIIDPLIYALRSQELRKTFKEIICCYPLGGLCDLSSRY
# Assay Notes: competition with 125-NDP-α-MSH, BHK human MC4R membranes
Positions of bridges follow the written chain, without caps; N, C: chain ends. Non-standard residues stand in square brackets, D forms with d. Phe(3,4-(OMe)2) = COc1ccc(C[C@H](N)C(=O)O)cc1OC; Sar = CNCC(=O)O
Assay Metric: Ki (pM)
One number for each entry, in pM.

Solved entries (count: 3):
Binder	Ki (pM)
cyclo(CAH[dF]HWCAKKKW) (disulfide 1-7; SMILES C[C@@H]1NC(=O)[C@@H]2CSSC[C@H](NC(=O)[C@H](Cc3c[nH]c4ccccc34)NC(=O)[C@H](Cc3c[nH]cn3)NC(=O)[C@@H](Cc3ccccc3)NC(=O)[C@H](Cc3c[nH]cn3)NC1=O)C(=O)N[C@@H](C)C(=O)N[C@@H](CCCCN)C(=O)N[C@@H](CCCCN)C(=O)N[C@@H](CCCCN)C(=O)N[C@@H](Cc1c[nH]c3ccccc13)C(=O)N2, also called c[c[Cys-Ala-His-D-Phe-His-Trp-Cys]-Ala-Lys-Lys-Lys-Trp]) [Chem. 60]	100
cyclo(CPH[dF]R[Phe(3,4-(OMe)2)]CAKKKR) (disulfide 1-7, also called c[c[Cys-Pro-His-D-Phe-Arg-3,4-DiMeO-Phe-Cys]-Ala-Lys-Lys-Lys-Arg]) [Chem. 94]	250
XAHFRWXAHFRW (HCys 1, 7; D-Phe 4, 10; disulphide HCys1-HCys7; head-to-tail amide HCys1-Trp12, also called c[c[HCys-Ala-His-D-Phe-Arg-Trp-HCys]-Ala-His-D-Phe-Arg-Trp]) [Chem. 3]	420

// moving on: another record for Ki
Query: Which value of Ki has been reported for cyclo(C[Sar]H[dF]RWC[Sar]H[dF]RW) (disulfide 1-7; SMILES CN1CC(=O)N[C@@H](Cc2c[nH]cn2)C(=O)N[C@H](Cc2ccccc2)C(=O)N[C@@H](CCCNC(=N)N)C(=O)N[C@@H](Cc2c[nH]c3ccccc23)C(=O)N[C@H]2CSSC[C@H](NC(=O)[C@H](Cc3c[nH]c4ccccc34)NC(=O)[C@H](CCCNC(=N)N)NC(=O)[C@@H](Cc3ccccc3)NC(=O)[C@H](Cc3c[nH]cn3)NC(=O)CN(C)C2=O)C1=O, also called c[c[Cys-Sar-His-D-Phe-Arg-Trp-Cys]-Sar-His-D-Phe-Arg-Trp]) [Chem. 31] in the records?
Response: 1670

Every entry's value here was drawn from patent US20200223889A1.
